These entries and their values trace back to paper PMC5923107.

- Target Entity: T1, hemagglutinin (HA) of influenza B virus B/Victoria/2/1987 (Victoria lineage) (Influenza B virus B/Victoria/2/1987, UniProt P22092, strain)
- T1 construct: also called B/Victoria/2/1987 HA; source: bought: Immune Tech
- Test Details: ELISA
- Condition Notes: both partners purified

Binder: TRL845 (antibody, V domains shown, also called MAb TRL845) VH: QVQLVQSGGDLVQPGGSLRLSCAASGFTFSRYSMNWVRQAPGMGLEWVAYISDTSRTIYYADSVKGRFTISRDNAKNSLYLQMKSLRDEDTAVYYCARDPDTPFVRAFDSWGQGTLVTVSS VL: DIVLTQSPSFLSASVGDRVTITCRASQLISSYFAWYQQKPGKPPKLLIYAASTLQSGVPSRFSGSGSGTQFSLTISSLQPEDFATYYCQQLNSYPPITFGQGTRLEIK
binding result: binds
